// data source = the supplement of paper PMC7393113

For each entry below, report its mitochondrial superoxide value.
System: iBMDM (immortalised mouse bone-marrow-derived macrophages), LPS-stimulated
Assay: mitochondrial superoxide (MitoSOX fluorescence) fold increase over unstimulated control; higher = more LPS-induced mitochondrial ROS (less inhibition)
Settings: inhibitor concentration: 500 nM; LPS: 100 ng/ml; time after LPS: 1 h
One number for each entry.

Go through the items and report each one's mitochondrial superoxide.
1. S=C(NCc1ccc2c(c1)OCO2)N1CCN(c2ncnc3c2oc2ccccc23)CC1 [Amuvatinib (MP-470)]
2. O=C(Nc1cc(C(F)(F)F)cc(C(F)(F)F)c1)c1cc(Cl)ccc1O
3. CCc1cccc(CC)c1NC(=O)N1Cc2[nH]nc(NC(=O)c3ccc(N4CCN(C)CC4)cc3)c2C1
4. NC(=O)Nc1sc(-c2ccc(F)cc2)cc1C(N)=O
5. Cc1nc(N)sc1-c1ccnc(Nc2ccc(N3CCOCC3)cc2)n1
6. CCc1cnn2c(NCc3ccc[n+]([O-])c3)cc(N3CCCC[C@H]3CCO)nc12

Reply:
1.18
0.988
1.09
1.15
1.49
1.28

Go through the items and report each one's mitochondrial superoxide.
1. C[C@@H]1CN(CC(=O)Nc2ccc3c(c2)Cc2cccc(-c4cc(=O)cc(N5CCOCC5)o4)c2S3)C[C@H](C)O1
2. CNC(=O)c1ccc(-c2cnc3ncc(Cc4ccc5ncccc5c4)n3n2)cc1F

Reply:
1.2
1.12

Go through the items and report each one's mitochondrial superoxide.
1. C#Cc1cccc(Nc2ncnc3cc(OCCOC)c(OCCO)cc23)c1
2. Cc1ncc(-c2ccnc(Nc3ccc(S(C)(=O)=O)cc3)n2)n1C(C)C
3. CC(C)(C)c1cc(/C=C(\C#N)C(N)=S)cc(C(C)(C)C)c1O [Tyrphostin AG 879]
4. Cn1cc(-c2ccc3nnc(Sc4ccc5ncccc5c4)n3n2)cn1
5. CCNC(=O)Nc1ccc(-c2nc3c(c(N4CCOC[C@@H]4C)n2)CCN(C2COC2)C3)cc1
6. C[C@@H]1COCCN1c1cc(C2(S(C)(=O)=O)CC2)nc(-c2cccc3[nH]ccc23)n1

Reply:
1. 1.16
2. 1.36
3. 1.37
4. 1.33
5. 1.42
6. 1.19

Go through the items and report each one's mitochondrial superoxide.
1. O=C(c1cccc(Cl)c1F)N1CCN(Cc2cccc(Nc3nccs3)n2)CC1
2. CS(=O)(=O)c1cccc(CNc2nc(Nc3ccc4c(c3)CCC(=O)N4)ncc2C(F)(F)F)c1
3. Cc1cc(Nc2nc(N[C@@H](C)c3ccc(F)cc3)c(C#N)cc2F)n[nH]1
4. CCN(CC)CCCC(C)Nc1nc(C)cc(Nc2ccc3nc(C)cc(N)c3c2)n1 (stereo not given)
5. O=c1sn(-c2cccc3ccccc23)c(=O)n1Cc1ccccc1 [Tideglusib]
6. O=C(NOCC1CC1)c1ccc(F)c(F)c1Nc1ccc(I)cc1Cl

Reply:
1.15
1.2
1.09
1.35
1.14
1.57

====

Tested on: iBMDM (immortalised mouse bone-marrow-derived macrophages), LPS-stimulated
Assay: mitochondrial superoxide (MitoSOX fluorescence) fold increase over unstimulated control; higher = more LPS-induced mitochondrial ROS (less inhibition)
Conditions: inhibitor concentration: 500 nM; LPS: 100 ng/ml; time after LPS: 2 h
For each entry below, report its mitochondrial superoxide value.
One number for each entry.

Recorded mitochondrial superoxide, per entry:
O=C(NC(NC(=S)Nc1ccc(F)c([N+](=O)[O-])c1)C(Cl)(Cl)Cl)C(c1ccccc1)c1ccccc1 (centres undefined)	1.25
COc1cc(Nc2ncc(F)c(Nc3ccc4c(n3)NC(=O)C(C)(C)O4)n2)cc(OC)c1OC [R406 (free base)]	1.32
Nc1nc(N)c(N=O)c(OCC2CCCCC2)n1	1.25
Cc1c(C(=O)N2CCOc3ccc(-c4ccc(N)nc4)cc3C2)ccc(S(C)(=O)=O)c1F	1.25

Go through the items and report each one's mitochondrial superoxide.
1. Nc1nc(N)c2nc(-c3cccc(O)c3)cnc2n1
2. Nc1ncnc2c1c(-c1cnc3[nH]ccc3c1)nn2C1CCCC1
3. CS(=O)(=O)c1ccc(-c2cnc(N)c(C(=O)Nc3ccccc3)n2)cc1
4. COc1cc2nccc(Oc3ccc(NC(=O)Nc4cc(C)on4)c(Cl)c3)c2cc1OC
5. C[S+]([O-])c1ccc(-c2nc(-c3ccc(F)cc3)c(-c3ccncc3)[nH]2)cc1 (centres undefined)

Reply:
1. 1.04
2. 1.41
3. 1.46
4. 1.17
5. 1.5
